Reference for the values: patent US20090325959A1

The molecules listed here are annotated with their log10 Ki.
Biological target: ROCK1 (Homo sapiens)
Construct: purchased Upstate/Chemicon 14-601
Sequence (Q13464 17-535 limits assumed): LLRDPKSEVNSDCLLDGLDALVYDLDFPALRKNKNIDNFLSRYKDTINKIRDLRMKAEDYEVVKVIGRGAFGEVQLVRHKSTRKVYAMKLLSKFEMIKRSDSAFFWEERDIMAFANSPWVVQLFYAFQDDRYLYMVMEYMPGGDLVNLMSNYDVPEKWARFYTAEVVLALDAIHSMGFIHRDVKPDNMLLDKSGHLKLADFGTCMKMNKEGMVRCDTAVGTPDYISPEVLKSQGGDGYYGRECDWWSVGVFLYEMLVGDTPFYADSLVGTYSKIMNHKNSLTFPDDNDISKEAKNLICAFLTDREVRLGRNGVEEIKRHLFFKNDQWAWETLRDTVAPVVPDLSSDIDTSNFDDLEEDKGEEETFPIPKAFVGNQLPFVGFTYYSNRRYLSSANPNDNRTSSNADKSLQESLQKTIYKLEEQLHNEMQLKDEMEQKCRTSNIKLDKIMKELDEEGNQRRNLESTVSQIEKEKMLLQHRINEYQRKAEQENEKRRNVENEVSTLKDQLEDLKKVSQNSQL
Test: Rho kinase inhibition assay (IMAP fluorescence polarization), ROCK1;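 also: kinase reaction run 60 min at room temperature, then phosphorylated substrate captured on IMAP beads for 30 min, with fluorescence polarization read in mP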
Format: biochemical
Details: average Ki
Values reflect log10 of reported Ki (nM).

For orientation, consider the following solved cases.
| molecule | target-desc | log10 Ki |
| --- | --- | --- |
| NC(=O)Cn1ccc2cc(CN3CCC[C@H](Nc4ccc5[nH]ncc5c4)C3)ccc21 [Compound 1.165] | ROCK1 (Homo sapiens) | 1.71 |
| CSc1ccc(CN2CC[C@@H](Nc3cccc4cnccc34)C2)cc1 [Compound 2.026] | ROCK1 (Homo sapiens) | 1.58 |
| OCCN1CCc2ccc(CN3CCC[C@H](Nc4ccc5[nH]ncc5c4)C3)cc21 [Compound 1.217] | ROCK1 (Homo sapiens) | 1.85 |

Q: Identify measured log10 Ki corresponding to OCCOc1cccc(CN2CC[C@@H](Nc3cccc4cnccc34)C2)c1 [Compound 2.039]
Ans: 1.27

Q: Identify measured log10 Ki corresponding to OCc1ccc(CN2CCC[C@H](Nc3ccc4[nH]ncc4c3)C2)cc1 [Compound 1.223]
Ans: 2.38

Q: Identify measured log10 Ki corresponding to Clc1ccc(CN2CCC[C@H](Nc3ccc4[nH]ncc4c3)C2)cc1 [Compound 1.141]
Ans: 1.45

Q: Identify measured log10 Ki corresponding to CCS(=O)(=O)Nc1cc(CN2CC[C@@H](Nc3cccc4cnccc34)C2)ccc1C [Compound 2.054]
Ans: 1.23

Q: Identify measured log10 Ki corresponding to Cc1ccc(CN2CCC[C@@H](Nc3ccc4[nH]ncc4c3)C2)c(C)c1 [Compound 1.137]
Ans: 1.56

Q: Identify measured log10 Ki corresponding to OCCOc1cc(CN2CC[C@@H](Nc3cccc4cnccc34)C2)ccc1F [Compound 2.068]
Ans: 0.90

Q: Identify measured log10 Ki corresponding to Oc1cccc(CN2CCC[C@H](Nc3ccc4[nH]ncc4c3)C2)c1 [Compound 1.163]
Ans: 1.53
